PROTOCOL_SUMMARY: melting temperature; fluorescence melt of hairpins on a sequencing array, two-state fit, raised by 9.35 °C to match UV melts
STATED_CONDITIONS: sodium 0.088 M
// Tm lookup, one value per entry
Give just the numeric value; °C need not be written.

Q) Consider the sequence shown here: GATCTCGCTAGAGATC ((((((....)))))) What is its recorded Tm?
A) 67.6

Q) Consider the sequence shown here: GATTGTGGAAACATGATC (((..((....))..))) What is its recorded Tm?
A) 31.2

Q) Consider the sequence shown here: GGACGCGAAAGCGGATCC ((((((....)))..))) What is its recorded Tm?
A) 47.5

Q) Consider the sequence shown here: GTATCACGAAAGTGTTAC (((.(((....))).))) What is its recorded Tm?
A) 42.3

Q) Consider the sequence shown here: GCGTTTAGACGC ((((....)))) What is its recorded Tm?
A) 54

* * *

PROTOCOL_SUMMARY: folding enthalpy; higher = less favourable; fluorescence melt of hairpins on a sequencing array, two-state fit
STATED_CONDITIONS: sodium 0.088 M
EXPERIMENTAL_ENDPOINT: folding enthalpy (kcal/mol)
Give just the numeric value; kcal/mol need not be written.

CGGTTGCGGAAACGCCCG (((..(((....)))))); -22.3
GTCGCTTCGAAAGAAGAC (((..(((....)))))); -9.98
GGTAATCGAAAGATGACC (((.(((....))).))); -33.9
GATACTGGAAACAGTGTC ((.((((....)))).)); -25.9
GATCAACACTTTGATC ((((((....)))))); -37.8

Q) Consider the sequence shown here: GCACCGCGAAAGCGATGC (((.(((....))).))) What is its recorded folding enthalpy?
A) -43.6

Q) Consider the sequence shown here: GCGATTCATCGC ((((....)))) What is its recorded folding enthalpy?
A) -30.1

Q) Consider the sequence shown here: GCACTCTCGAAAGAGTGC (((..(((....)))))) What is its recorded folding enthalpy?
A) -45.9

* * *

PROTOCOL_SUMMARY: melting temperature; fluorescence melt of hairpins on a sequencing array, two-state fit, raised by 9.35 °C to match UV melts
STATED_CONDITIONS: sodium 0.088 M
// Tm lookup, one value per entry
Be sure to follow the number with its unit.

GATCTGTGTCCAGATC ((((((....)))))); 49.2 °C
GCAAACCGAAAGGTGTGC (((.(((....))).))); 57.3 °C

Next item in the queue.
Q) Consider the sequence shown here: GCCACCACGAAAGTGGGC (((..(((....)))))) What is its recorded Tm?
A) 46 °C

* * *

// folding enthalpy lookup, one value per entry
PROTOCOL_SUMMARY: folding enthalpy; higher = less favourable; fluorescence melt of hairpins on a sequencing array, two-state fit
STATED_CONDITIONS: sodium 0.088 M
Give just the numeric value; kcal/mol need not be written.

Q) Consider the sequence shown here: GCACGCGAAAGCGGGTGC ((((((....)))..))) What is its recorded folding enthalpy?
A) -17.4

Q) Consider the sequence shown here: GGCGTCGGAAACGGTGCC (((..((....))..))) What is its recorded folding enthalpy?
A) -30.6

* * *

// Tm lookup, one value per entry
PROTOCOL_SUMMARY: melting temperature; fluorescence melt of hairpins on a sequencing array, two-state fit, raised by 9.35 °C to match UV melts
STATED_CONDITIONS: sodium 0.088 M
Give just the numeric value; °C need not be written.

GATCACCAGGTGATC ((((((...)))))); 54.8
CTCGAGAAATCGAG (((((....))))); 47.9
GCGAACGAAAGTTGCCGC ((((((....)))..))); 42.4
GACCTAGGAAACTAGGTC (((((((....))))))); 60.5
GGAAACGAAAGTTCTCC ((((((....))).))); 35.8
GTAGGGGCGAAAGCCTAC (((..(((....)))))); 37.9

Q) Consider the sequence shown here: CGTCCACGGAAACGTACG (((..(((....)))))) What is its recorded Tm?
A) 28.5

Q) Consider the sequence shown here: GATACGCGAAAGCGGATC (((.(((....))).))) What is its recorded Tm?
A) 66

Q) Consider the sequence shown here: GTCCCCGGAAACGAGGAC ((((.((....)).)))) What is its recorded Tm?
A) 48

Q) Consider the sequence shown here: GTCCTCGAAAGAGGCGAC ((((((....)))..))) What is its recorded Tm?
A) 50.9

Q) Consider the sequence shown here: GTCGCACGAAAGTGTGAC (((.(((....))).))) What is its recorded Tm?
A) 67.4

Q) Consider the sequence shown here: GACTACGAAAGTACAGTC ((((((....)))..))) What is its recorded Tm?
A) 34

Q) Consider the sequence shown here: GCGACTGGAAACGGTTGC ((.((.(....).)).)) What is its recorded Tm?
A) 43.9

Q) Consider the sequence shown here: GCCATGGGAAACCACGGC (((.(((....))).))) What is its recorded Tm?
A) 47.7

Q) Consider the sequence shown here: GAGTTTACGAAAGTACTC (((..(((....)))))) What is its recorded Tm?
A) 30

Q) Consider the sequence shown here: GACATCGGAAACGATATC ((.((((....)))).)) What is its recorded Tm?
A) 31.6

* * *

PROTOCOL_SUMMARY: melting temperature; fluorescence melt of hairpins on a sequencing array, two-state fit, raised by 9.35 °C to match UV melts
STATED_CONDITIONS: sodium 0.088 M
Hi, to clarify the labels: 1 covers Tm from 50 °C upward, 0 covers anything below 50 °C.

Solved entries (count: 7):
GTTGGTGGAAACATCAAC ((((.((....)).)))); 0
GCTAGTGAAAACTAGC ((((((....)))))); 1
GAATCGGGAAACCAATTC ((((.((....)).)))); 0
GGGTGTGGAAACGCATCC ((.((.(....).)).)); 0
GGGACTTCGAAAGAACCC (((..(((....)))))); 0
GATCGCCCACGCGATC ((((((....)))))); 1
GCTCCTGGAAACAGGGGC ((.((((....)))).)); 1

Shifting focus to the sequence that follows.
Q) Could you verify whether the entry GAACCTGGAAACAGGCTC ((.((((....)))).)) shows Tm of no less than 50 °C?
A) 0

* * *

// folding enthalpy lookup, one value per entry
PROTOCOL_SUMMARY: folding enthalpy; higher = less favourable; fluorescence melt of hairpins on a sequencing array, two-state fit
STATED_CONDITIONS: sodium 0.088 M
Give just the numeric value; kcal/mol need not be written.

GTCTCTGGAAACAGGGAC (((.(((....))).))); -27.4
GCCAGCGGAAACGCTGAC (.(((((....))))).); -13.7
GGAATAGGAAACTATCCC ((.((((....)))).)); -10.9
GAGTGCGGAAACACACTC (((((.(....).))))); -28.4
GGCTCCCCGAAAGGGGCC (((..(((....)))))); -12
ACATCGAAAGATGT (((((....))))); -19.6

Q) Consider the sequence shown here: GAGCCCGAAAGGGACCTC ((((((....)))..))) What is its recorded folding enthalpy?
A) -15.6

Q) Consider the sequence shown here: GAGGAACGAAAGTTACTC (((.(((....))).))) What is its recorded folding enthalpy?
A) -39.3

Q) Consider the sequence shown here: GGCTACGAAAGTATAGCC ((((((....)))..))) What is its recorded folding enthalpy?
A) -25.1

Q) Consider the sequence shown here: GGTAAACGAAAGTTAACC (((.(((....))).))) What is its recorded folding enthalpy?
A) -30.5

Q) Consider the sequence shown here: GCCACCCCGAAAGGGGGC (((..(((....)))))) What is its recorded folding enthalpy?
A) -11.4

* * *

PROTOCOL_SUMMARY: folding enthalpy; higher = less favourable; fluorescence melt of hairpins on a sequencing array, two-state fit
STATED_CONDITIONS: sodium 0.088 M
// folding enthalpy lookup, one value per entry

Below: 4 sequences and their reported folding enthalpy.
GCACTCGAAAGAGTTGC ((((((....))).))); -22.3 kcal/mol
GACCCGCGAAAGCGTGTC (((.(((....))).))); -24 kcal/mol
GTCACTGGAAACAGCGAC (((.(((....))).))); -35.2 kcal/mol
GCCGGGCGAAAGCGGGGC (((..((....))..))); -22.9 kcal/mol

Q) Consider the sequence shown here: GATCTTTATAAGATC ((((((...)))))) What is its recorded folding enthalpy?
A) -33.3 kcal/mol

Q) Consider the sequence shown here: GTAGGTGGAAACACCTGC (.(((((....))))).) What is its recorded folding enthalpy?
A) -18.5 kcal/mol

Q) Consider the sequence shown here: GATCCTTGACAGGATC ((((((....)))))) What is its recorded folding enthalpy?
A) -28.2 kcal/mol

Q) Consider the sequence shown here: GAGTGAGGAAACTCGCTC (((.(((....))).))) What is its recorded folding enthalpy?
A) -49.6 kcal/mol

Q) Consider the sequence shown here: GGTACCGAAAGGTTCACC ((((((....)))..))) What is its recorded folding enthalpy?
A) -13.6 kcal/mol

Q) Consider the sequence shown here: GCCGCCCGAAAGGGGGC (((.(((....)))))) What is its recorded folding enthalpy?
A) -18 kcal/mol

Q) Consider the sequence shown here: GGGCATGGAAACGTGCCC (((((.(....).))))) What is its recorded folding enthalpy?
A) -50.3 kcal/mol

Q) Consider the sequence shown here: GTGTAAGAAATTACAC ((((((....)))))) What is its recorded folding enthalpy?
A) -29.2 kcal/mol

Q) Consider the sequence shown here: CGTCCACGGAAACGTACG (((..(((....)))))) What is its recorded folding enthalpy?
A) -15.7 kcal/mol

Q) Consider the sequence shown here: GATCGTGGAAACATGGTC ((.(.((....)).).)) What is its recorded folding enthalpy?
A) -20.4 kcal/mol

Q) Consider the sequence shown here: GCTTGGCGAAAGCTGAGC (((..((....))..))) What is its recorded folding enthalpy?
A) -22.3 kcal/mol

Q) Consider the sequence shown here: GGGTCTGGAAACAGACCC (((((((....))))))) What is its recorded folding enthalpy?
A) -36.1 kcal/mol

Q) Consider the sequence shown here: GCTTGCGAAAGCATAGC ((((((....))).))) What is its recorded folding enthalpy?
A) -18.9 kcal/mol

Q) Consider the sequence shown here: GCCCGGACGAAAGTCGGC (((..(((....)))))) What is its recorded folding enthalpy?
A) -14.5 kcal/mol

Q) Consider the sequence shown here: GACCCTACGAAAGTAGTC (((..(((....)))))) What is its recorded folding enthalpy?
A) -11.3 kcal/mol

Q) Consider the sequence shown here: GATCTGGGTTCAGATC ((((((....)))))) What is its recorded folding enthalpy?
A) -43.3 kcal/mol

Q) Consider the sequence shown here: GGTTCTGCGAAAGCAACC (((..(((....)))))) What is its recorded folding enthalpy?
A) -12.3 kcal/mol

Q) Consider the sequence shown here: GCTCACGAAAGTGCTAGC ((((((....)))..))) What is its recorded folding enthalpy?
A) -15.6 kcal/mol

Q) Consider the sequence shown here: GTTGCAGGAAACCGCAAC (((((.(....).))))) What is its recorded folding enthalpy?
A) -43.8 kcal/mol

Q) Consider the sequence shown here: GCTTGTACGAAAGTAAGC (((..(((....)))))) What is its recorded folding enthalpy?
A) -24.9 kcal/mol

Q) Consider the sequence shown here: GCAAGGGGAAACCTTTGC ((((.((....)).)))) What is its recorded folding enthalpy?
A) -30.8 kcal/mol

Q) Consider the sequence shown here: GATCGAGACTCGATC ((((((...)))))) What is its recorded folding enthalpy?
A) -37.1 kcal/mol
